I'd be grateful if you could share measured EC50, aequorin bioluminescence for these entries.
# Subject of test: human MCH-1R (human, UniProt Q99705 1-353)
# Sequence (Q99705 whole entry): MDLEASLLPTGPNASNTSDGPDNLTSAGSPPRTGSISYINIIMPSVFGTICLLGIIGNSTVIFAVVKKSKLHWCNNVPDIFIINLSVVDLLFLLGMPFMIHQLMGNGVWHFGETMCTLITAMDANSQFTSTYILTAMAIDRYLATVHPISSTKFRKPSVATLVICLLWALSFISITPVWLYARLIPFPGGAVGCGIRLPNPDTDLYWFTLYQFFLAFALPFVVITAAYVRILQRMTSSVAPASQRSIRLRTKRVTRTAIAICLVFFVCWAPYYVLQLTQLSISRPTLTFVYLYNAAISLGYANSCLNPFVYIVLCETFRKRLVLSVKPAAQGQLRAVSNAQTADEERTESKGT
# Protocol text: cell-based or functional assay
Positions of bridges follow the written chain, without caps; N, C: chain ends.
One number for each entry, in µM.

Binder	Value unit	Reported measurement
Ac-RCMLKRVYRPC-NH2 (disulfide 2-11 (inferred)) [SEQ. ID. NO. 24 (Lys^10 analog of Ac-hMCH(6-16)-NH2)]	µM	5.7

Memo: Ac-RCMLNRVYRPC-NH2 (disulfide 2-11 (inferred), also called Asn^10 peptide) [SEQ. ID. NO. 25 (Asn^10 analog of Ac-hMCH(6-16)-NH2)] , reported EC50, aequorin bioluminescence: 0.051
